Assay: Antiproliferative activity against human MDA-MB-231 cells after 72 hrs by SRB assay
Type: functional, cell-based
Settings: MDA-MB-231, 72 h
Endpoint: pIC50
Here pIC50 is given on a logarithmic scale as minus log10 of the concentration in mol/L.

Value of pIC50 reported for the molecule CCCNC(=O)[C@@H]1Cc2ccccc2CN1C(=O)c1cc(Cl)c(O)cc1O is 5.27

Value of pIC50 reported for the molecule O=C([C@H]1Cc2ccccc2CN1C(=O)c1cc(Cl)c(O)cc1O)N1CCCC1 is 5.71

Value of pIC50 reported for the molecule O=C(NCCc1ccccc1)[C@H]1Cc2ccccc2CN1C(=O)c1cc(Cl)c(O)cc1O is 5.58

Value of pIC50 reported for the molecule CCNC(=O)[C@H]1Cc2ccccc2CN1C(=O)c1cc(Cl)c(O)cc1O is 5.34

Value of pIC50 reported for the molecule C=CCNC(=O)[C@@H]1Cc2ccccc2CN1C(=O)c1cc(Cl)c(O)cc1O is 5.17

---

Consider the following compounds; for each one, report its pIC50.
Experiment: Antiproliferative activity against human MDA-MB-231 cells after 72 hrs by SRB assay
Format: functional, cell-based
Details: MDA-MB-231, 72 h
Here pIC50 is given on a logarithmic scale as minus log10 of the concentration in mol/L.

Value of pIC50 reported for the compound COC1=C2C[C@@H](C)C[C@H](OC)[C@H](O)[C@@H](C)/C=C(\C)[C@H](OC(N)=O)[C@@H](OC)/C=C\C=C(/C)C(=O)NC(=CC1=O)C2=O is 7.52

Value of pIC50 reported for the compound CCN(CC)C(=O)[C@H]1Cc2ccccc2CN1C(=O)c1cc(Cl)c(O)cc1O is 5.65

Value of pIC50 reported for the compound CCN(CC)C(=O)[C@@H]1Cc2ccccc2CN1C(=O)c1cc(Cl)c(O)cc1O is 5.21

Value of pIC50 reported for the compound CC(C)NC(=O)[C@@H]1Cc2ccccc2CN1C(=O)c1cc(Cl)c(O)cc1O is 5.24

---

Consider the following molecules; for each one, report its pIC50.
Assay: Antiproliferative activity against human MDA-MB-231 cells after 72 hrs by SRB assay
Type: functional, cell-based
Settings: MDA-MB-231, 72 h
Here pIC50 is given on a logarithmic scale as minus log10 of the concentration in mol/L.

Value of pIC50 reported for the molecule O=C([C@@H]1Cc2ccccc2CN1C(=O)c1cc(Cl)c(O)cc1O)N1CCCCC1 is 5.02

Value of pIC50 reported for the molecule O=C(NCc1ccccc1)[C@H]1Cc2ccccc2CN1C(=O)c1cc(Cl)c(O)cc1O is 6.01

Value of pIC50 reported for the molecule O=C(NC1CCCC1)[C@H]1Cc2ccccc2CN1C(=O)c1cc(Cl)c(O)cc1O is 5.45

Value of pIC50 reported for the molecule O=C(NCc1ccccc1)[C@@H]1Cc2ccccc2CN1C(=O)c1cc(Cl)c(O)cc1O is 5.39

Value of pIC50 reported for the molecule CC(C)NC(=O)[C@H]1Cc2ccccc2CN1C(=O)c1cc(Cl)c(O)cc1O is 5.60

Value of pIC50 reported for the molecule CNC(=O)[C@@H]1Cc2ccccc2CN1C(=O)c1cc(Cl)c(O)cc1O is 5.03

Value of pIC50 reported for the molecule O=C([C@@H]1Cc2ccccc2CN1C(=O)c1cc(Cl)c(O)cc1O)N1CCCC1 is 5.10

Value of pIC50 reported for the molecule CCNC(=O)[C@@H]1Cc2ccccc2CN1C(=O)c1cc(Cl)c(O)cc1O is 5.41

Value of pIC50 reported for the molecule C=CCNC1=C2C[C@@H](C)C[C@H](OC)[C@H](O)[C@@H](C)/C=C(\C)[C@H](OC(N)=O)[C@@H](OC)/C=C\C=C(/C)C(=O)NC(=CC1=O)C2=O is 6.28

Value of pIC50 reported for the molecule C=CCNC(=O)[C@H]1Cc2ccccc2CN1C(=O)c1cc(Cl)c(O)cc1O is 5.67

Value of pIC50 reported for the molecule O=C(Nc1ccccc1)[C@H]1Cc2ccccc2CN1C(=O)c1cc(Cl)c(O)cc1O is 5.72

Value of pIC50 reported for the molecule O=C([C@H]1Cc2ccccc2CN1C(=O)c1cc(Cl)c(O)cc1O)N1CCCCC1 is 5.79

Value of pIC50 reported for the molecule CNC(=O)[C@H]1Cc2ccccc2CN1C(=O)c1cc(Cl)c(O)cc1O is 5.03

Value of pIC50 reported for the molecule O=C(NC1CCCCC1)[C@@H]1Cc2ccccc2CN1C(=O)c1cc(Cl)c(O)cc1O is 5.14

Value of pIC50 reported for the molecule O=C(NCCc1ccccc1)[C@@H]1Cc2ccccc2CN1C(=O)c1cc(Cl)c(O)cc1O is 5.04

Value of pIC50 reported for the molecule CCCNC(=O)[C@H]1Cc2ccccc2CN1C(=O)c1cc(Cl)c(O)cc1O is 5.59

Value of pIC50 reported for the molecule O=C(NC1CCCCC1)[C@H]1Cc2ccccc2CN1C(=O)c1cc(Cl)c(O)cc1O is 5.69
